Assay: Stability test in an aqueous solution
Format: physicochemical
Conditions: physiological saline; 20 days, 25° C., 10 μg/ml in physiological sodium chloride solution; read-out: Remaining ratio 20 days
observable: remaining at 480 h

compound	reported result
CCC#CC[C@H](C)[C@@H](O)/C=C/[C@@H]1[C@@H]2[C@H](C[C@H]1O)O/C(=C\CCCC(=O)O)C2(F)F [Compound 27]	100%
Cc1cccc(C[C@H](O)/C=C/[C@@H]2[C@@H]3[C@H](C[C@H]2O)O/C(=C\CCCC(=O)O)C3(F)F)c1 [Compound 21]	100%
CCC#CC[C@H](C)[C@H](O)/C=C/[C@@H]1[C@@H]2[C@H](C[C@H]1O)O/C(=C\CCCC(=O)O)C2(F)F [Compound 17]	100%
O=C(O)CCC/C=C1\O[C@H]2C[C@@H](O)[C@H](/C=C/[C@@H](O)C3CCCC3)[C@H]2C1(F)F [Compound 13]	98%
CCC#CCC(C)[C@H](O)/C=C/[C@@H]1[C@@H]2[C@H](C[C@H]1O)O/C(=C\CCCC(=O)O)C2(F)F (stereo partly shown) [Compound 15]	97.8%
CCCC[C@H](C)C[C@@H](O)/C=C/[C@@H]1[C@@H]2[C@H](C[C@H]1O)O/C(=C\CCCC(=O)O)C2(F)F [Compound 23]	100%
Cc1cccc(C[C@@H](O)/C=C/[C@@H]2[C@@H]3[C@H](C[C@H]2O)O/C(=C\CCCC(=O)O)C3(F)F)c1 [Compound 29]	99.3%
